Experimental Target: Human autotaxin enzyme (Homo sapiens, UniProt Q13822)
Construct: purchased R&D System
Experimental Protocol: Evaluation of autotaxin inhibitor, Method B (Test Example 2): TG-mTMP fluorescence
Assay type: biochemical
Particulars: Assay Method B (Test Example 2), human autotaxin; read-out: Inhibitory Activity (autotaxin enzyme inhibitory activity, IC50 class)
Quantity: IC50

* CCCCCn1c(-c2ccc(C(=O)N(C)C)cc2)cc(=O)n2cc(-c3ccc(Cl)cc3)nc12 | < 10 nM
* Cc1cc(=O)n2cc(-c3ccc(Cl)cc3)nc2n1Cc1ccc(Oc2ccccc2)cc1 | > 1000 nM
* CCCCCn1c(C)c(CCO)c(=O)n2cc(-c3cccc(Cl)c3)nc12 | 100 to 1000 nM
* CCCCCn1c(C)cc(=O)n2cc(-c3ccc(C)cc3C)nc12 | 10 to 100 nM

// next entry
**Query** Bench note: what IC50 did CCCCCn1c(C)c(CCC(=O)O)c(=O)n2cc(-c3ccc(Cl)cc3)nc12 show?
**Result** < 10 nM

###

pIC50: recorded values
Experimental Target: Human autotaxin enzyme (Homo sapiens)
Construct: purchased R&D System
Experimental Protocol: Evaluation of autotaxin inhibitor, Method B (Test Example 2): TG-mTMP fluorescence
Assay type: biochemical
Particulars: Assay Method: Method B (Test Example 2); read-out: Inhibitory Activity (Enzyme Inhibitory Activity, IC50)
Experimental: (Method B) Evaluation of Autotaxin Inhibitor Solution A containing 25 mM Tris-HCl buffer (pH7.5), 100 mM NaCl, 5 mM MgCl2 and 0.1% BSA was prepared. […] 5 μl of 150 mM EDTA in Solution A was added to quench the reaction, and the fluorescent dye TokyoGreen, which was produced by the reaction, was detected. The fluorescence was detected using ViewLux (PerkinElmer, Inc.) with an excitation wavelength of 480 nm and a fluorescence wavelength of 540 nm.
pIC50: −log10 of the molar value.

Consider the worked cases shown below.
- CCOCCn1c(C)cc(=O)n2cc(-c3ccc(Cl)cc3)nc12: 7.00 to 8.00
- Cc1ccccc1Cn1c(C)cc(=O)n2cc(-c3ccc(Cl)cc3)nc12: 6.00 to 7.00
- Cc1cc(=O)n2cc(-c3ccc(Cl)cc3)nc2n1CC(=O)OC(C)(C)C: 7.00 to 8.00
- Cc1cc(=O)n2cc(-c3ccc(Cl)cc3)nc2n1CCN(C)C: 6.00 to 7.00
- CCN(CC)C(=O)Cn1c(C)cc(=O)n2cc(-c3ccc(Cl)cc3)nc12: 6.00 to 7.00
- CCN(CC)CCn1c(C)cc(=O)n2cc(-c3ccc(Cl)cc3)nc12: 6.00 to 7.00
- CCCCCCn1c(C)cc(=O)n2cc(-c3ccc(Cl)cc3)nc12: 7.00 to 8.00
- CCC(C)Cn1c(C)cc(=O)n2cc(-c3ccc(Cl)cc3)nc12 (stereo not drawn): 7.00 to 8.00

**Query** Bench note: what pIC50 did Cc1cc(=O)n2cc(-c3ccc(Cl)cc3)nc2n1CCC(F)=C(F)F show?
**Result** 7.00 to 8.00

**Query** Bench note: what pIC50 did Cc1cc(=O)n2cc(-c3ccc(Cl)cc3)nc2n1CC1CCCCC1 show?
**Result** 7.00 to 8.00

###

Experimental Target: Human autotaxin enzyme (Homo sapiens)
Construct: purchased R&D System
Experimental Protocol: Evaluation of autotaxin inhibitor, Method C (Test Example 3): 18:0 Lyso PC, choline assay, Resorufin fluorescence
Format: biochemical
Particulars: Assay Method C (Test Example 3), human autotaxin, 18:0 Lyso PC substrate; read-out: Inhibitory Activity (autotaxin enzyme inhibitory activity, IC50 class)
pIC50: −log10 of the molar value.
Quantity: pIC50

**Query** Bench note: what pIC50 did CCCCCn1c(N(C)Cc2ccccc2)cc(=O)n2cc(-c3ccc(Cl)cc3)nc12 show?
**Result** 7.00 to 8.00

**Query** Bench note: what pIC50 did CCCCCn1c(N2CCC(F)(F)CC2)cc(=O)n2cc(-c3ccc(Cl)cc3)nc12 show?
**Result** 6.00 to 7.00

**Query** Bench note: what pIC50 did CCCCCn1c(-c2ccc(C(=O)NCCCOC)cc2)cc(=O)n2cc(-c3ccc(Cl)cc3)nc12 show?
**Result** 7.00 to 8.00

###

Experimental Target: Human autotaxin enzyme (Homo sapiens, UniProt Q13822)
Construct: purchased R&D System
Experimental Protocol: Evaluation of autotaxin inhibitor, Method C (Test Example 3): 18:0 Lyso PC, choline assay, Resorufin fluorescence
Type: biochemical
Particulars: Assay Method C, human autotaxin, 18:0 Lyso PC substrate; read-out: Inhibitory Activity
IC50: recorded values

* CS(=O)(=O)CCNC(=O)Cc1cn(CCCC(F)(F)F)c2nc(-c3ccc(Cl)cc3)cn2c1=O | > 1000 nM
* O=C(Cc1cn(CCCC(F)(F)F)c2nc(-c3ccc(Cl)cc3)cn2c1=O)NCc1nn[nH]n1 | 10 to 100 nM
* C[C@H](NC(=O)[C@@H]1C[C@@H](O)CN1c1cc(=O)n2cc(-c3ccc(Cl)cc3)nc2n1C)C(=O)O | 100 to 1000 nM
* O=C(O)c1cccc(Cc2cn(CCCC(F)(F)F)c3nc(-c4ccc(Cl)cc4)cn3c2=O)c1 | 10 to 100 nM

// next entry
**Query** Bench note: what IC50 did CCCCCn1c(N2CCC[C@H]2C(=O)N[C@@H](CC(C)C)C(N)=O)cc(=O)n2cc(-c3ccc(Cl)cc3)nc12 show?
**Result** 10 to 100 nM

###

Experimental Target: Human autotaxin enzyme (Homo sapiens)
Construct: purchased R&D System
Experimental Protocol: Evaluation of autotaxin inhibitor, Method C (Test Example 3): 18:0 Lyso PC, choline assay, Resorufin fluorescence
Format: biochemical
Particulars: Assay Method C (Test Example 3), human autotaxin, 18:0 Lyso PC substrate; read-out: Inhibitory Activity (autotaxin enzyme inhibitory activity, IC50 class)
Protocol: (Method C) Evaluation of Autotaxin Inhibitor Solution B containing 100 mM Tris-HCl buffer (pH7.5), 150 mM NaCl, 5 mM MgCl2 and 0.05% Triton X-100 was prepared. […] The fluorescent dye Resorufin, which was produced by the reaction, was detected. The fluorescence was detected using ViewLux (PerkinElmer, Inc.) with an excitation wavelength of 531 nm and a fluorescence wavelength of 598 nm. […]
pIC50: −log10 of the molar value.
Quantity: pIC50

* CCCCCn1c(-c2ccc(C(=O)N3CCC4(CN(C(=O)OC(C)(C)C)C4)C3)cc2)cc(=O)n2cc(-c3ccc(Cl)cc3)nc12 [Compound 491] | 6.00 to 7.00

**Query** Please state recorded pIC50 (tested on Human autotaxin enzyme (Homo sapiens)) of CCCCCn1c(N2CCCC[C@H]2C(=O)NCC(=O)O)cc(=O)n2cc(-c3ccc(Cl)cc3)nc12 [Compound 633]
**Result** 7.00 to 8.00

**Query** Please state recorded pIC50 (tested on Human autotaxin enzyme (Homo sapiens)) of CCCCCn1c(-c2ccc(CCCC)cc2)cc(=O)n2cc(-c3ccc(Cl)cc3)nc12 [Compound 442]
**Result** < 6.00

**Query** Please state recorded pIC50 (tested on Human autotaxin enzyme (Homo sapiens)) of CCCCCn1c(N2C[C@@H](O)C[C@H]2C(=O)NC(C)(C)CC(=O)OCC)cc(=O)n2cc(-c3ccc(Cl)cc3)nc12 [Compound 598]
**Result** 7.00 to 8.00

**Query** Please state recorded pIC50 (tested on Human autotaxin enzyme (Homo sapiens)) of CCCCCn1c(NCC2(CO)COC2)cc(=O)n2cc(-c3ccc(Cl)cc3)nc12 [Compound 714]
**Result** 6.00 to 7.00

**Query** Please state recorded pIC50 (tested on Human autotaxin enzyme (Homo sapiens)) of CCCCCn1c(N(CCCC(=O)OCC)C(C)=O)cc(=O)n2cc(-c3ccc(Cl)cc3)nc12 [Compound 564]
**Result** 7.00 to 8.00

**Query** Please state recorded pIC50 (tested on Human autotaxin enzyme (Homo sapiens)) of CCCCCn1c(N2C[C@H](F)C[C@H]2C(=O)NCCC(=O)OCC)cc(=O)n2cc(-c3ccc(Cl)cc3)nc12 [Compound 591]
**Result** 6.00 to 7.00

###

IC50: recorded values
Experimental Target: Human autotaxin enzyme (Homo sapiens, UniProt Q13822)
Construct: purchased R&D System
Experimental Protocol: Evaluation of autotaxin inhibitor, Method C (Test Example 3): 18:0 Lyso PC, choline assay, Resorufin fluorescence
Type: biochemical
Particulars: Assay Method C (Test Example 3), human autotaxin, 18:0 Lyso PC substrate; read-out: Inhibitory Activity (autotaxin enzyme inhibitory activity, IC50 class)

* CCCCCn1c(-c2ccc(C(=O)NCCc3ccc(S(C)(=O)=O)cc3)cc2)cc(=O)n2cc(-c3ccc(Cl)cc3)nc12 | < 10 nM
* CCCCCn1c(NCCC(=O)NCC(=O)O)cc(=O)n2cc(-c3ccc(Cl)cc3)nc12 | 100 to 1000 nM
* CCCCCn1c(-c2ccc(C(=O)NCc3ccc(S(N)(=O)=O)cc3)cc2)cc(=O)n2cc(-c3ccc(Cl)cc3)nc12 | 10 to 100 nM
* Cn1c(N2CCC[C@H]2C(=O)N[C@@H](Cc2ccccc2)C(=O)O)cc(=O)n2cc(-c3ccc(Cl)cc3)nc12 | 100 to 1000 nM

**Query** Bench note: what IC50 did CCCCCn1c(N2CCC[C@H]2C(=O)NC(CO)C(=O)OC)cc(=O)n2cc(-c3ccc(Cl)cc3)nc12 (some centres unmarked) show?
**Result** 10 to 100 nM

**Query** Bench note: what IC50 did CCCCCn1c(N2CCC[C@H]2C(=O)N[C@H](C(=O)O)c2ccccc2)cc(=O)n2cc(-c3ccc(Cl)cc3)nc12 show?
**Result** < 10 nM

**Query** Bench note: what IC50 did CCCCCn1c(N2CCCC(F)(F)C2)cc(=O)n2cc(-c3ccc(Cl)cc3)nc12 show?
**Result** 100 to 1000 nM

**Query** Bench note: what IC50 did CCCCCn1c(N2CCCC[C@H]2C(=O)NCCC(=O)O)cc(=O)n2cc(-c3ccc(Cl)cc3)nc12 show?
**Result** < 10 nM

**Query** Bench note: what IC50 did CCCCCn1c(-c2ccc(C(=O)NCc3ccc(N4CCOCC4)cc3)cc2)cc(=O)n2cc(-c3ccc(Cl)cc3)nc12 show?
**Result** 10 to 100 nM

**Query** Bench note: what IC50 did CCCCCn1c(-c2ccc(C(=O)Nc3ncco3)cc2)cc(=O)n2cc(-c3ccc(Cl)cc3)nc12 show?
**Result** 10 to 100 nM

**Query** Bench note: what IC50 did CCCCCn1c(N2CCC[C@H]2C(=O)N[C@H](C)C(=O)O)cc(=O)n2cc(-c3ccc(Cl)cc3)nc12 show?
**Result** 10 to 100 nM

**Query** Bench note: what IC50 did CCCCCn1c(-c2ccc(C(=O)NC3CCOC3=O)cc2)cc(=O)n2cc(-c3ccc(Cl)cc3)nc12 (centres unmarked) show?
**Result** 10 to 100 nM

**Query** Bench note: what IC50 did CCCCCn1c(N2CCC[C@H](C(=O)O)C2)cc(=O)n2cc(-c3ccc(Cl)cc3)nc12 show?
**Result** < 10 nM

**Query** Bench note: what IC50 did CCCCCn1c(-c2cnc(CNC(=O)[C@H](O)CO)nc2)cc(=O)n2cc(-c3ccc(Cl)cc3)nc12 show?
**Result** < 10 nM
